Origin of values: PubChem BioAssay

- assaySummary: E. coli acrAB mutant growth effects, primary screen, E. coli filamentation inducers, strain DRC39, OD650, 24 h (AID 1178);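 further: growth measured as culture turbidity by optical density at 650 nm; test concentration not given here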
- reportedConditions: higher = more signal, called active from +8 up or from −8 down
Item-by-item account of z-score

compound	z-score
NC(=O)NCC#Cc1ccc2c(c1)[C@]1(C(=O)N2)[C@H](c2ccc(OCCO)cc2)N2[C@H](c3ccccc3)[C@H](c3ccccc3)OC(=O)[C@H]2[C@@H]1C(=O)Nc1nc2ccccc2s1	0.606
CC(C)(C)OC(=O)CC[C@@]12N=C(c3ccc(OCCCO)cc3)O[C@@H]1c1ccccc1N(Cc1ccccc1)C2=O	1.59
CC(C)C(CO)N1C(=O)[C@@H]2[C@H]3C(=O)OCC=C[C@H]3OC23C=CCN(Cc2ccccc2)C(=O)[C@@H]13 (stereo partly drawn)	1.53

---

Item-by-item account of composite z-score
- System: Plasmodium falciparum Sir2 (PF13_0152, Sir2A)
- assaySummary: pfSir2 binders on small-molecule microarrays, primary screen, biochemical, small-molecule microarray, 635 nm fluorescence (AID 1098);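 further: score merges spot fluorescence intensity with its signal-to-noise ratio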
- reportedConditions: small-molecule microarray binding, fluorescence 635 nm; higher = more signal
measuredAttribute: composite z-score

                                   molecule  result
0  CC(=O)OC(C/C=C\B1OC(C)(C)C(C)(C)O1)c1ccccc1 (centres undefined)  -0.552
1  CCOC(=O)C[C@H]1[C@H](OC(=O)c2cc3ccccc3oc2=O)[C@@H](NC(=O)c2ccccc2)c2cc(OCCCO)ccc2N1C(=O)Cc1ccc(OC)cc1   0.575
2  O=C1c2ccccc2C(=O)c2cc([C@H]3Oc4ccccc4S(=O)(=O)N4CCC[C@@H]34)ccc21   -1.12
3  C=C(C1=CCN(S(=O)(=O)c2ccc(C)cc2)C1)[C@@H](OC(C)=O)[C@@H]1CCCN1S(=O)(=O)c1ccccc1[N+](=O)[O-]    1.55

---

- assayedTarget: Fibroblast growth factor 10 (Homo sapiens) (UniProt O15520)
- Sequence (O15520 whole entry, looked up): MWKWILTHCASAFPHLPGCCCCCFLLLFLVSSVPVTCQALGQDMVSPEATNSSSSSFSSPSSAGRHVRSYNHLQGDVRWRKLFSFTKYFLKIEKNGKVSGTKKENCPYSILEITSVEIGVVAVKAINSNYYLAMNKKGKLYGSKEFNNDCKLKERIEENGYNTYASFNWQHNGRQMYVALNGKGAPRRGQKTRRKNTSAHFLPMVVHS
- assaySummary: FGF10 binders on small-molecule microarrays, primary screen, biochemical, small-molecule microarray, 635 nm fluorescence (AID 1102)
- reportedConditions: FGF10 binding, fluorescence 635 nm, higher = more signal

compound	composite z-score
COCCOC(=O)N1C(=O)[C@@]2(c3cc(C#CCNC(N)=O)ccc31)[C@H](C(=O)NC[C@H](O)c1ccccc1)[C@H]1C(=O)O[C@H](c3ccccc3)[C@H](c3ccccc3)N1[C@@H]2c1ccc(O)cc1	0.477
COC(=O)c1c(CC[C@@H](CO)NC(=O)Nc2ccc(OC)cc2)oc(C(=O)Cc2ccccc2)c1C(=O)OC	0.394
C=C(C1=CCN(S(=O)(=O)c2ccc(C)cc2)C1)[C@@H](OC(C)=O)[C@@H]1CCCN1S(=O)(=O)c1ccccc1[N+](=O)[O-]	0.0611
C=CC[C@]1(C(=O)N2CCCCC2)COC(c2ccc(OCCCO)cc2)=N1	-0.621
CCOC(=O)C[C@H]1[C@H](OC(=O)c2ccc(-c3ccccc3)cc2)[C@@H](NC(=O)C2CCCCC2)c2cc(OCCCO)ccc2N1C(=O)c1ccc2ccccc2n1	0.651
COc1ccc(C#Cc2ccc3c(c2)[C@]2(C(=O)N3)[C@H](c3ccc(O)cc3)N3[C@H](c4ccccc4)[C@H](c4ccccc4)OC(=O)[C@H]3[C@@H]2C(=O)N2CCN(c3ncccn3)CC2)cc1	0.388
COC(=O)C1=CC(CCCO)=CC(C2CC2)N(Cc2cc3c(cc2Br)OCO3)C=C1C(=O)OC (configuration not stated)	0.0344
